Where these numbers come from: patent US6413944B1

# Test system: HIV-1
# test_details: microbe, parasite or virus in culture
# run_conditions: Human immunodeficiency virus 1, CEM-SS, read-out: Syncytial Assay 50% Inhibitory Concentration, HIV-1G-910 (post AZT therapy)
# Protocol: CEM-SS cells were seeded at 10,000 cells per well into 96-cell plates precoated with poly L-lysine. The cell monolayers were infected with about 50 plaque forming units of HIV-1. […] HIV-1 plaques were counted, the counts entered into a computer and a IC50 for HIV-1 plaque formation was determined. […] Dose-response relationships were used to compare drug effects. […] The 50% inhibitory (I50) concentrations were calculated from the regression lines.
quantity: pIC50
The value called pIC50 is obtained by taking minus log10 of the concentration in mol/L.

Quick one: pIC50 for Cc1cn([C@H]2C[C@H](N=[N+]=[N-])[C@@H](CO)O2)c(=O)[nH]c1=O ?
5.14

###

# System: HIV-1
# test_details: microbe, parasite or virus in culture
# run_conditions: Human immunodeficiency virus 1, CEM-SS, read-out: 50% Inhibitory Concentration, Antiviral Activity: HIV, syncytial assay in CEM-SS cells (Table I)
quantity: IC50 (nM)
Value expressed in nM; do not type the unit.

Quick one: IC50 for Cc1cn([C@H]2C[C@H](N=[N+]=[N-])[C@@H](CO)O2)c(=O)[nH]c1=O ?
2.7

###

# System: HIV-1
# test_details: microbe, parasite or virus in culture
# run_conditions: Human immunodeficiency virus 1, CEM-SS, read-out: Syncytial Assay 50% Inhibitory Concentration, HIV-1G-762 (pre AZT therapy), clinical isolate sensitive to AZT
quantity: IC50 (nM)
Value expressed in nM; do not type the unit.

Quick one: IC50 for Cc1cn([C@H]2C[C@H](N=[N+]=[N-])[C@@H](CO)O2)c(=O)[nH]c1=O ?
0.2

###

# test_details: Cytotoxicity by uptake of [3H]thymidine in uninfected CEM-SS cells
# Format: cell-based
# run_conditions: human; uptake of [3H]thymidine in uninfected CEM-SS cells (Table I); read-out: 50% Inhibitory Concentration, Cytotoxicity
quantity: IC50 at 36 h
Please answer in the form of a number followed by its unit of measurement.

Quick one: IC50 at 36 h for Cc1cn([C@H]2C[C@H](N=[N+]=[N-])[C@@H](CO)O2)c(=O)[nH]c1=O ?
5 µM
